Test system: P. yoelii liver stage in HepG2-A16-CD81EGFP, imaging
Experiment: exo-erythrocytic parasite development inhibition – imaging, Malaria Box, P. yoelii, HepG2-A16-CD81EGFP, dose response (AID 602156);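 note: infected cells exposed to compound for 48 hours before fixation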
Calls of active or inactive are those of the source. The rule behind the calls is not given here.
Classes used: 1.0 for active, 0.0 for inactive

1) C1CCC(NP2(NC3CCCCC3)=NP(NC3CCCCC3)(NC3CCCCC3)=NP(NC3CCCCC3)(NC3CCCCC3)=N2)CC1 = 1.0
2) CCOc1ccc2ncc(S(=O)(=O)c3ccc(OC)cc3)c(N3CCN(C)CC3)c2c1 = 1.0
3) O=C1c2ccccc2C2=Nc3ccccc3SC(c3cccc(F)c3)C12 (stereo unspecified) = 1.0
4) CCSc1ccc2ccccc2[n+]1CC = 0.0
5) Fc1ccc(Nc2nc(NCc3ccccc3)c3ccccc3n2)cc1 = 1.0
6) CCOC(=O)c1c(NC(C)=O)sc2c1CCN(C(C)C)C2 = 1.0
7) COc1ccc2[nH]c3ccccc3c(=O)c2c1 = 1.0
8) CCn1c(/C=C/C=C2\N(C)c3ccccc3C2(C)C)[n+](Cc2ccccc2)c2ccccc21 = 1.0
9) O=C1C2=C(Nc3ccccc3SC2c2ccco2)c2ccccc21 (stereo unspecified) = 1.0
10) CC(C)(C)c1ccc(Oc2ccc(N3C(=O)C4CC=CCC4C3=O)cc2)cc1 (stereo unspecified) = 0.0
11) Cc1cc(N)c2ccccc2[n+]1CCCCCCCCCC[n+]1c(C)cc(N)c2ccccc21 = 1.0
12) CC1(C)N=C(N)N=C(N)N1c1ccc(Cl)cc1 = 1.0
13) COc1ccc(-c2c(C(F)(F)F)nn(C)c2NC(=O)Nc2ccc(F)cc2F)cc1 = 1.0
14) CC1(C)N=C(N)N=C(N)N1c1ccccc1 = 1.0
15) CC(=O)Nc1nc(C)c(-c2csc(Nc3ccc(C)cc3)n2)s1 = 1.0
16) CC[n+]1c(/C=C/C=C2\N(C)c3ccccc3C2(C)C)n(-c2ccccc2)c2cc(Cl)ccc21 = 1.0
17) CCOC(=O)C1=C(c2ccccc2)N=c2sc(=Cc3cc(C)n(-c4ccc(F)cc4)c3C)c(=O)n2C1c1cccc(OC)c1OC (stereo unspecified) = 1.0
18) CN(Cc1ccccc1)C(=O)CSc1nc(NCc2ccccc2)c2ccccc2n1 = 1.0
19) Nc1ccc(-c2nc3cc(Oc4ccc(Oc5ccc6[nH]c(-c7ccc(N)cc7)nc6c5)cc4)ccc3[nH]2)cc1 = 1.0
20) COc1ccc(Nc2cc(C)nc(NCc3ccccc3)n2)cc1 = 1.0
21) c1ccc(OCCOc2ccc(Nc3ccnc4cc5ccccc5cc34)cc2)cc1 = 1.0

* * *

Test system: P. yoelii liver stage in HepG2-A16-CD81EGFP, imaging
Assay: exo-erythrocytic parasite development inhibition – imaging, Malaria Box, P. yoelii, HepG2-A16-CD81EGFP, dose response (AID 602156);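 note: infected cells exposed to compound for 48 hours before fixation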
The source made the active and inactive calls. The rule behind the calls is not given here.
ENDPOINT: IC50

1) CCOC(=O)c1c(CSc2ccccc2)oc2cc(CN(C)C)c(O)c(Cl)c12 = 7.2 µM
2) Cc1ccc(-c2c[n+]3c(n2-c2ccc(C)cc2)CCCCC3)cc1 = 0.146 µM
3) Cc1cccc(C(=O)NCc2n[nH]c(=S)n2-c2cccc(C(F)(F)F)c2)c1 = > 10 µM (inactive)
4) Cc1oc2c(c1C(=O)NCC1CCCO1)C(=O)c1ccccc1C2=O (stereo unspecified) = 0.189 µM
5) Cc1cccc(N2C(N)=NC(N)=NC2(C)C)c1 = 0.00425 µM
6) Cc1c(C#N)c2ccccc2n1CC(=O)Nc1ccc(Br)cc1 = > 10 µM (inactive)
7) CCc1ccccc1NC(C)=O = > 10 µM (inactive)
8) COc1ccc2[nH]c(=O)c(CN(C(=S)Nc3ccccc3OC)C3CCCC3)cc2c1 = > 9.74 µM (inactive)
9) CCNC(=O)C1CCN(c2cccc3c2C(=O)N(C2CCCCCCC2)C3=O)CC1 = 0.269 µM
10) O=[N+]([O-])c1cccc(C(Nc2nccs2)c2ccc3cccnc3c2O)c1 (stereo unspecified) = 0.358 µM
11) Cc1ccc2nc3nc4c(C)cccc4c(N)c3cc2c1 = 0.0474 µM

* * *

Tested on: P. yoelii liver stage in HepG2-A16-CD81EGFP, imaging
Assay: exo-erythrocytic parasite development inhibition – imaging, Malaria Box, P. yoelii, HepG2-A16-CD81EGFP, dose response (AID 602156);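 note: infected cells exposed to compound for 48 hours before fixation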
Calls of active or inactive are those of the source. No rule for the calls is given here.
Classes used: active, inactive

1. O=C1CC(c2ccccc2)CC2=C1C(c1ccccc1[N+](=O)[O-])Nc1ccccc1N2 (configuration not stated) = inactive
2. O=C(c1cccc([N+](=O)[O-])c1)c1ccc(Cl)c(Cl)c1 = active
3. Cc1nc2ccccc2c(=O)n1-c1ccc([N+](=O)[O-])cc1 = inactive
4. O=C(c1ccc([N+](=O)[O-])cc1)c1ccc(Cl)c(Cl)c1 = active
5. CC(Oc1ccc(Cl)cc1Cl)c1nc(-c2ccc(NC(=O)c3ccco3)cc2)no1 (configuration not stated) = active
6. CC(=O)N(C1=C(N2CCOCC2)C(=O)c2ccccc2C1=O)c1cccc(Cl)c1 = active
7. CCc1cc2c(cc1-c1csc(N=C(N)N)n1)C(C)(C)CCC2(C)C = active
8. O=C(Nc1ccc(-c2nc3ccc(NC(=O)c4ccc(Br)o4)cc3[nH]2)cc1)c1ccc(Br)o1 = active
9. CCOC(=O)C1(CC)CC(C)(C(=O)C[n+]2cccc(Br)c2)OC1=O (configuration not stated) = inactive
10. CCCCCCN(C(=O)COc1ccccc1)C(CC)c1nc2ccccc2c(=O)n1-c1cccc(Cl)c1 (configuration not stated) = inactive
11. CCC1CN2CCc3cc(OC)c(OC)cc3C2CC1CC1NCCc2cc(OC)c(OC)cc21 (configuration not stated) = active
12. Cc1ccccc1N=Nc1ccc(NC(=O)c2ccco2)c(C)c1 = active
13. Cc1ncc(CCCCN(C)C)c2c1[nH]c1ccccc12 = active
14. O=[N+]([O-])c1cc(C(F)(F)F)ccc1N1CCCN(C(=S)Nc2ccccc2)CC1 = active
15. O=C(Cc1cccs1)N1CCN(c2ccccn2)CC1 = inactive
16. O=C(Cc1ccccc1)NC(c1ccc(Cl)cc1)c1ccc2cccnc2c1O (configuration not stated) = active
17. COc1ccc(C2CC(=O)C3=C(C2)NC(C)=C(C(=O)OC(C)C)C3c2cccc(C)c2)cc1OC (configuration not stated) = active
18. CCOC(=O)c1ccc(OCC2c3cc(OC)c(OC)cc3CCN2C(=O)c2ccc([N+](=O)[O-])cc2)cc1 (configuration not stated) = inactive
19. CCCCOc1ccc(N(C(C)=O)C2=C(N3CCOCC3)C(=O)c3ccccc3C2=O)cc1 = active
20. Cc1cccc(C)c1N(CC(=O)NCc1ccco1)S(C)(=O)=O = inactive
21. CCN1/C(=C/c2ccc3ccccc3[n+]2CC)Sc2sc3ccccc3c21 = active
22. O=C1c2ccccc2C2=Nc3ccccc3SC(c3ccccc3F)C12 (configuration not stated) = active
23. CCN(CC)c1ccc(NC(=O)c2cccs2)cc1 = active
24. COc1ccc2nc(C)cc(Nc3ccc(Oc4ccc5ccccc5c4Cl)c(Cl)c3)c2c1 = active
25. c1ccc(-c2csc(Nc3nc4cc5c(cc4s3)OCO5)n2)nc1 = active
26. COc1cc(C(=O)N2N=C(c3c(-c4ccccc4)c4cc(Br)ccc4[nH]c3=O)CC2c2cccc([N+](=O)[O-])c2)cc(OC)c1OC (configuration not stated) = active
27. Clc1ccccc1-c1nc([P+](c2ccccc2)(c2ccccc2)c2ccccc2)c(N2CCOCC2)o1 = active
28. CCN(CC)CCCNc1nc2cc(OC)c(OC)cc2c2nc(-c3ccccc3)nn12 = active
29. CCc1ccccc1N=C1c2c(cccc2[N+](=O)[O-])C(=O)C1C(C)=O (configuration not stated) = active
30. Cc1ccnc(Nc2nc(-c3ccccn3)cs2)c1 = active
31. OC(CNC1CCCCC1)Cn1c2ccccc2c2ccccc21 (configuration not stated) = active
32. c1ccc(-c2nn(-c3ccccc3)[n+](-c3ccccc3)n2)cc1 = active
33. CCCN(C(=O)Nc1c(C(C)C)cccc1C(C)C)C(CC)c1nc2ccccc2c(=O)n1-c1cccc(C)c1 (configuration not stated) = active
34. CCOC(=O)c1c[nH]c2c3c(ccc2c1=O)CCCC3 = active
35. CCCCCCOc1ccc(C(C)=NNC2=NCCN2)cc1[N+](=O)[O-] = active
36. CN1CCN(c2ccc(Nc3c4ccccc4nc4ccccc34)cc2)CC1 = active
37. CN(C)c1ccc(-c2n(C)c3ccccc3[n+]2C)cc1 = active
38. CCN(CC)CCCN(Cc1cc2cc(OC)c(OC)cc2[nH]c1=O)C(=S)Nc1cccc(Cl)c1 = active
39. O=C1C(Nc2ccc(O)cc2)=CC(=NS(=O)(=O)c2cccs2)c2ccccc21 = active
40. OCCNc1nc(Nc2ccccc2)nc2ccccc12 = active
41. CC(Oc1ccc(Cl)cc1Cl)c1nc(-c2ccc(NC(=O)c3cccs3)cc2)no1 (configuration not stated) = active
42. c1ccc2c(NCCc3cnc[nH]3)c3ccccc3nc2c1 = active
